Molecular target: PGR (gene 5241) (UniProt P06401)
Sequence (P06401 whole entry, looked up): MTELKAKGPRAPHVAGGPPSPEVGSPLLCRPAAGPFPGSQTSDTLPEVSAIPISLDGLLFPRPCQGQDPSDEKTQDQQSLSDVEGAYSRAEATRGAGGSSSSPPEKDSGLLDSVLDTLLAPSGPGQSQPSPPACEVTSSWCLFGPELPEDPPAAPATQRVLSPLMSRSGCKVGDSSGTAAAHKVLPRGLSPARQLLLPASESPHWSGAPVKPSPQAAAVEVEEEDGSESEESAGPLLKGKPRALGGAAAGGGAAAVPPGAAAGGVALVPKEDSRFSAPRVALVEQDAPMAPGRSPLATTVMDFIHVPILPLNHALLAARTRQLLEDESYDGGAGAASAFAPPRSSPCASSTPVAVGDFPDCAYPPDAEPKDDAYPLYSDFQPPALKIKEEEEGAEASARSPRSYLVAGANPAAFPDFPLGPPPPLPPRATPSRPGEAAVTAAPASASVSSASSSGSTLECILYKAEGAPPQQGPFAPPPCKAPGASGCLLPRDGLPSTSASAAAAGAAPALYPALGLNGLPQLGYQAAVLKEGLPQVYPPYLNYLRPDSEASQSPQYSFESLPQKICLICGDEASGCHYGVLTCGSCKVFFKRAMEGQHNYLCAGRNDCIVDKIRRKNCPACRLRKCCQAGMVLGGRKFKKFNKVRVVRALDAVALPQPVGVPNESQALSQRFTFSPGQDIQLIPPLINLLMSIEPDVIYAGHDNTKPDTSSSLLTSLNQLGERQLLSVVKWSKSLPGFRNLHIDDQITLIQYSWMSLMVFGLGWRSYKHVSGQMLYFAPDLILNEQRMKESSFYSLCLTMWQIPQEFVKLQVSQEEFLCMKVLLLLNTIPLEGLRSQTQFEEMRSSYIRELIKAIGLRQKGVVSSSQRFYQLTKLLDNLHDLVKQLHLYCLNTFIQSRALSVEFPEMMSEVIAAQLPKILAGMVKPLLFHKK
Experiment: TOX21_PR_LUC_Followup_Antagonist: Tox21 HEK293 Progesterone Receptor (PR) Antagonism Luciferase Follow-Up Assay (AID 2283938);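 also: curve fitted upward as signal gain over DMSO baseline despite antagonist label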
Excerpt: TOX21_PR_LUC_Followup is a secondary assay for specificity for the TOX21_PR_BLA_Agonist assay. To differentiate true PR agonists from cytotoxic substances, this follow up assay is multiplexed with a cell viability assay.TOX21_PR_LUC_Followup_Antagonist is one of one assay component(s) measured or calculated from the TOX21_PR_LUC_Followup assay. […] Furthermore, this assay endpoint can be referred to as a primary readout, because the performed assay has only produced 1 assay endpoint. […]
Results filed as inconclusive are left out. Calls of active or inactive are those of the source. The calls were made as follows: active = hit-call score of the fitted dose curve at least 0.9, where 1 is the maximum; inconclusive = response in the unintended direction; inactive = score below 0.9.
Give your call using only these classes: active, inactive

Solved cases below.
compound	discrete label
C=CC1(C)OC(=O)N(c2cc(Cl)cc(Cl)c2)C1=O (centres undefined)	inactive
COC(=O)N(OC)c1ccccc1COc1ccn(-c2ccc(Cl)cc2)n1	active
COc1ccc(C(c2ccc(OC)cc2)C(Cl)(Cl)Cl)cc1	active

Incoming: // return assay outcome for N#CC(CCc1ccc(Cl)cc1)(Cn1cncn1)c1ccccc1 (centres undefined)
Outgoing: active

---

read-out: Alkaline Phosphatase, Placental (ALPP) gene, ALPP (gene 250); assay: LTEA_HepaRG_ALPP: Life Technologies and Expression Analysis (LTEA) Assay for Alkaline Phosphatase, Placental (ALPP) gene using HepaRG (AID 2283468); details: mRNA level, 48 h; actives raise or lower the signal
Activity calls are given as the source filed them. Rule for the calls: active = hit-call score of the fitted dose curve at least 0.9, where 1 is the maximum; inactive = score below 0.9.
Give your call using only these classes: yes (1) (active), no (0) (inactive)

Solved cases below.
molecule	discrete label
CCCN(CCC)c1c([N+](=O)[O-])cc(S(N)(=O)=O)cc1[N+](=O)[O-]	no (0)
CCCCNC(=O)OCC#CI	yes (1)

Incoming: // return assay outcome for CCON=C(CC)C1=C(O)CC(c2c(C)cc(C)cc2C)CC1=O (stereo unspecified)
Outgoing: no (0)

Incoming: // return assay outcome for `COP(=S)(OC)Oc1nc(Cl)c(Cl)cc1Cl`
Outgoing: no (0)

Incoming: // return assay outcome for `C=CCC1=C(C)[C@@H](OC(=O)[C@@H]2[C@@H](C=C(C)C)C2(C)C)CC1=O`
Outgoing: yes (1)

Incoming: // return assay outcome for `CC(C)(C)c1ccc(CSc2cnn(C(C)(C)C)c(=O)c2Cl)cc1`
Outgoing: yes (1)

---

assay: CCTE_Mundy_HCI_Cortical_Synap_Neur_Matur_SynapseCount: CCTE's Synaptogenesis and Neurite Maturation Assay in rat cortical cells for Synapse Count, Mundy Lab (AID 2284218)
Calls of active or inactive are those of the source. Rule for the calls: active = hit-call score of the fitted dose curve at least 0.9, where 1 is the maximum; inactive = score below 0.9.
value kind: AC50

Field: example entries. Status: answers known.
compound	AC50
CC(C)(C)c1ccc(CSc2cnn(C(C)(C)C)c(=O)c2Cl)cc1	0.000602 µM (active)
C=CCC1=C(C)[C@@H](OC(=O)[C@@H]2[C@@H](C=C(C)C)C2(C)C)CC1=O	22.2 µM (active)
C=CC1(C)OC(=O)N(c2cc(Cl)cc(Cl)c2)C1=O (stereo not given)	inactive
C=CCC1=C(C)C(OC(=O)C2C(C=C(C)C)C2(C)C)CC1=O (stereo not given)	inactive

Incoming: Quote AC50 reported for `CCOc1cc(Oc2ccc(C(F)(F)F)cc2Cl)ccc1[N+](=O)[O-]` please.
Outgoing: 11.9 µM (active)
